SUBJECT_OF_TEST: T1, human IL-2Rβ (human, UniProt P14784 27-240, limits assumed)
T1 construct: recombinant protein, coated or immobilised; also called hu IL-2R; IL-2R beta
T1 sequence: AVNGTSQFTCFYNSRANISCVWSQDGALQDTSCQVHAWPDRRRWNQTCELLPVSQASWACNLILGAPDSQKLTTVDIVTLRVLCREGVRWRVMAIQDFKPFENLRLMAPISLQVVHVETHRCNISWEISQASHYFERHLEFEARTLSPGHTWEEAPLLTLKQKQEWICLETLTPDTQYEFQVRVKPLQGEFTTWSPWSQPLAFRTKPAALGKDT
TEST: SPR, P.E. off-rate
koff values for the binders below.
The answer is to be given in s⁻¹; state only the numeric part.

Some solved entries appear below for comparison.
| BINDER | QUANTITY_MEASURED | NUMBER |
| --- | --- | --- |
| FJ1427 P035MP02E11 (VHH, soluble VHH in periplasmic extract; also called clone nr) VHH: QVQLQESGGGLVQAGGSLRLSCAASGRTFSNYVMAWFRQAPGKEREFVGAITQTGRGTFYADSVEGRFTISRINDKNTVYLQMNSLKPEDTAVYYCSAPRSGRAGTRNQMDYEYWGQGTQVTVSS | koff | 0.00188 |
| FJ1427 P035MP02G08 (VHH, soluble VHH in periplasmic extract; also called clone nr) VHH: QVQLVESGGGLVQAGGSLRLSCTVSGDVFVRYTMAWFRQAPGKEREFVASVTDSGRTTEYVHSVRGRFTVSRDNAKNTVYLQMNNLKPEDTAVYYCAANTDYFRIRSLDANTWGQGTQVTVSS | koff | 0.00178 |
| FJ1427_P035MP02C10 (VHH, soluble VHH in periplasmic extract; also called clone nr) VHH: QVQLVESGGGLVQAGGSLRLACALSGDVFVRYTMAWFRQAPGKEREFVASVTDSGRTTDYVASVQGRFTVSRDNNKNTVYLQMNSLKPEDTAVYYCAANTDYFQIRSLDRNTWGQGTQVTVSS | koff | 0.000521 |

# input for lookup
# lookup: koff of FJ1427_P035MP06F05 (VHH, soluble VHH in periplasmic extract; also called 25-MP06F05; clone nr) VHH: QVQLVESGGGLVQTGDSLRLSCAASGRSLDTTYIAWFRQAPGKERDFLAYISPRFSHTWYADSVKGRFTISRNIAKRTVDLEMNSLEPEDTAVYYCAAREHSGSTAWEHYDHWGQGTQVTVSS
0.000836
